measurement.target: Matrix protein 2 (Influenza A virus (A/Udorn/307/1972(H3N2)), UniProt P0DOF8, V27A)
Provide the reported IC50 of each item.
Give bare numbers, in µM.

Task: API: value(readout=IC50, system=Matrix protein 2 (Influenza A virus (A/Udorn/307/1972(H3N2)), UniProt P0DOF8, V27A)) for record NC1CCCC2(CCCCCC2)CC1 (stereo not drawn)
Result: 11.3

Task: Can you handle `NCC1CCC2(CCCCC2)CC1` next?
Result: 31.1

Task: Moving on to N=C(N)NC1CCC2(CC1)C1CC3CC(C1)CC2C3 (stereo not drawn)
Result: 0.5

Task: Now consider NC1CCCC2(CCCCC2)CC1 (stereo not drawn) .
Result: 68.1

Task: Also, NC1CSC2(SC1)C1CC3CC(C1)CC2C3 (stereo not drawn) please.
Result: 0.4

Task: Ok, now CC(N)C1CCC2(CCCCC2)CC1 (stereo not drawn)
Result: 25.2

Further cases:
Task: Form entry - test system: Matrix protein 2 (Influenza A virus (A/Udorn/307/1972(H3N2)), UniProt P0DOF8, V27A); read-out: IC50; compound: `NC1CCC2(CCCCCC2)CC1`
Result: 28.1
